assay: Pharmacokinetics of BTB in drainage fluid and portal venous blood after abdominal application of PAN indicator hydrogel (HPLC-MS); format: in vivo, domestic pigs (Sus Scrofa Domestica); conditions: pig, portal venous blood, other: abdominal application at the pancreatic surgery field, pig portal venous blood, Day 1, mean of animals; read-out: Portal Venous Blood BTB-Concentration, Mean
parameter.measured: concentration at 1 day (ng/mL)
Answer with a number only, understood to be in ng/mL.

IN: For "Cc1c(C2(c3cc(C(C)C)c(O)c(Br)c3C)OS(=O)(=O)c3ccccc32)cc(C(C)C)c(O)c1Br" , write its concentration at 1 day.
OUT: 0
